Measured values drawn from patent US20240360126A1 for this set.

- protocol_details: Single dose pharmacokinetics (PK) study in male Wister-Han rats
- Format: in vivo
- condition_set: male, Wister-Han, plasma; rat, PO 10 mg/kg; read-out: PO AUC0-last
What AUC(0-t) was measured for each of the following?
One number for each entry, in ng·h/mL.

[[record]]
compound = "Cc1cc(N2CC[C@H](c3ccc(N4CCOC[C@@H](N)C4)cn3)[C@@H](C)C2)c2cnn(C)c2n1 [Example 40]"
parameter_measured = "AUC(0-t)"
test_result = 2840

[[record]]
compound = "CO[C@@H]1CN(c2cnc([C@@H]3CCN(c4cc(C)nc5c4cnn5C)C[C@H]3C)c(C)c2)C[C@H]1N [Example 26]"
parameter_measured = "AUC(0-t)"
test_result = 9260

[[record]]
compound = "Cc1cc(N2CC[C@@H](c3ncc(N4CCOC[C@@H](N)C4)cc3C)[C@H](C)C2)c2cnn(C)c2n1 [Example 28]"
parameter_measured = "AUC(0-t)"
test_result = 1800


Let us examine a further case.
[Q] Specify reported AUC(0-t) for the compound shown: Cc1cc(N2CCC(c3ncc(N4CCNCC4)cc3C)CC2)c2cnn(C)c2n1 [Example 7]
[A] 7510
